target: T1, human CS1 (HuCS1) (human, UniProt Q9NQ25 23-335); experiment: flow cytometry on L-363 cells; GeoMean (max) relative to elotuzumab
T1 construct: also called FL-HuCS1; SLAMF7
observed_property: % of Elotuzumab (%)
Hi! Could you send only the number? It should be in %, unit omitted.

[[record]]
binder = "HuCS1.27A12 (antibody, V domains shown, Humanized antibody; It has a human Fc (detected with anti-human Fc); also called Hu27A12) VH: EVQLVESGGGLVQPGGSLRLSCAASGFTFSDYYMAWVRQAPGKGLEWVAEINYDGSSTYYVDSVKGRFTISRDNAKNSLYLQMNSLRAEDTAVYYCARDRGFYFDYWGQGTTVTVSS VL: DVVMTQTPLSLSVTPGQPASISCRSSQSLVHNNGNTYLHWYLQKPGQSPQLLIYKVSNRFSGVPDRFSGSGSGTDFTLKISRVEAEDVGVYFCSQSTHVPPYTFGGGTKVEIK"
observed_property = "% of Elotuzumab"
observed_measurement = 142


The measured % of Elotuzumab associated with elotuzumab (antibody, IgG1, V domains shown, also called HuLuc63) VH: EVQLVESGGGLVQPGGSLRLSCAASGFDFSRYWMSWVRQAPGKGLEWIGEINPDSSTINYAPSLKDKFIISRDNAKNSLYLQMNSLRAEDTAVYYCARPDGNYWYFDVWGQGTLVTVSS VL: DIQMTQSPSSLSASVGDRVTITCKASQDVGIAVAWYQQKPGKVPKLLIYWASTRHTGVPDRFSGSGSGTDFTLTISSLQPEDVATYYCQQYSSYPYTFGQGTKVEIKR reads 100

The measured % of Elotuzumab associated with HuCS1.34C3 (antibody, human IgG1, kappa, V domains shown, Humanized IgG1; also called Hu34C3) VH: EVQLVESGGGLVQPGGSLRLSCAASGFTFSDYYMAWVRQAPGKGLEWVASINYDGSSTYYVDSVKGRFTISRDNAKNSLYLQMNSLRAEDTAVYYCARDRGYYFDYWGQGTTVTVSS VL: DVVMTQTPLSLSVTPGQPASISCRSSQSLVHSNGNTYLHWYLQKPGQSPQLLIYKVSNRFSGVPDRFSGSGSGTDFTLKISRVEAEDVGVYFCSQSTHVPPFTFGGGTKVEIKR reads 249
